target: HRgpA-6H (Porphyromonas gingivalis) (UniProt P28784); assay: ELISA, coated HRgpA-6H
measured.endpoint: Ratio OD(Variant)/OD(WT)
Form rule: numeric answer, no unit written next to it.

| binder | Ratio OD(Variant)/OD(WT) |
| --- | --- |
| KB001 mouse Fab VH I31W (Fab, V domains shown) VH: EVQLKQSGPGLVAPSQSLSITCTVSGFSLSWYSVHWVRQPPGKGLEWLGMIWGGGSSDYNSALKSRLSISKDNSKSQVFLKMNSLQTDDTAMYYCARNGNFYAMDYWGQGTSVTVSS VL: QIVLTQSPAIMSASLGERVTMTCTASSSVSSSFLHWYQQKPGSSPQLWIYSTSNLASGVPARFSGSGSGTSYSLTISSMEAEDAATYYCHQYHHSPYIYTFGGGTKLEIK | 0.91 |

// next item, Ratio OD(Variant)/OD(WT) requested
Could you share which Ratio OD(Variant)/OD(WT) value was measured for KB001 mouse Fab VL T24A (Fab, V domains shown) VH: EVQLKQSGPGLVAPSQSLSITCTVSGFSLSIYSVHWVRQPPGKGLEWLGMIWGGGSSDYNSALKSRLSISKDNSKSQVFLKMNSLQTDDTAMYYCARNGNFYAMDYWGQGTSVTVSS VL: QIVLTQSPAIMSASLGERVTMTCAASSSVSSSFLHWYQQKPGSSPQLWIYSTSNLASGVPARFSGSGSGTSYSLTISSMEAEDAATYYCHQYHHSPYIYTFGGGTKLEIK ? 0.984
